Test system: NCI-H460 lung
Assay protocol: NCI-60 one-dose screen, 48 h (100 = growth as untreated, 0 = no growth, -100 = all killed)
Experimental context: 10 µM unless noted
Description: Growth inhibition of the NCI-H460 human Non-Small Cell Lung tumor cell line is measured as a screen for anti-cancer activity. Cells are grown in 96 well plates and exposed to the test compound for 48 hours. Compounds are tested at a single concentration, which is 10^-5 M for most compounds. The reported endpoint is percent growth (GI% or GIPRCNT), where numbers from 0 - 100% represent growth inhibition, and numbers from -100% - 0 represent cell death. […]
The panel holds about 83,000 compounds, 20% with a hit somewhere; the sample as a whole holds those more often.
Quantity name: growth (%)
Report the value in % with no unit label.

Before answering, review these 5 worked examples.
> print(dat)
                                   molecule  measured.result
1  CN1C2CCC1[C@@H](COC(=O)c1ccccc1)[C@@H](O)C2 (stereo not given in full)              113
2         O=C(O)C(Br)CBr (stereo not given)              102
3  COC(=O)[C@@H](C)C[C@H](Cc1ccccc1)NC(=O)c1cccc([C@@H](C[C@H](C(C)C)N(C)C(=O)[C@@H](NC(=O)[C@H]2CCCCN2C)C2CC2)OC(C)=O)n1              7.3
4  C[C@]12CC[C@H]3[C@@H](C[C@@H]4SC(Nc5ccccc5)=N[C@@]45C/C(=N/O)CC[C@]35C)[C@@H]1CCC2=O             56.4
5  C=CC[PH+](c1ccccc1)c1ccccc1.C=CC[PH+](c1ccccc1)c1ccccc1.[Pt+2].[S-]c1ncccn1.[S-]c1ncccn1             91.6

Return growth measured with NCI-H460 lung given this molecule: COc1ccc2c(c1)C1(C)CCN(C)CC(C1)C2O (stereo not given)
105

Return growth measured with NCI-H460 lung given this molecule: Cc1cc(C(C)(C)C)ccc1O
105

Return growth measured with NCI-H460 lung given this molecule: C[N+]1(CC#CC[N+]2(C)CCCC2)CCCC1
106

Return growth measured with NCI-H460 lung given this molecule: COC12CC3(C)C(C4=CC(=O)OC4)CCC3(O)C3CCC4=CC(=O)CCC4(CO1)C32 (stereo not given)
113

Return growth measured with NCI-H460 lung given this molecule: C[Se]/C=C1/C(=O)N(c2c(Cl)cccc2Cl)c2ccccc21
14.6

* * *

System: SK-MEL-2 melanoma
Assay protocol: NCI-60 one-dose screen, 48 h (100 = growth as untreated, 0 = no growth, -100 = all killed)
Experimental context: 10 µM unless noted
About 83,000 compounds went through this panel and 20% of them were active in at least one assay; those are over-represented in the sample as a whole.
Quantity name: growth (%)
Report the value in % with no unit label.

> print(dat)
                                   molecule  units.text  measured.result
1  O=C(O)C(Br)CBr (configuration not stated)           %             85.1

State the recorded growth for this entry: O=S(=O)(c1ccc(O)cc1)c1ccccc1O
104

State the recorded growth for this entry: Oc1cc(N2CC2)c(O)cc1N1CC1
-37.5

State the recorded growth for this entry: CN1CCC2(CC1)C(C#N)C(=O)NC(=O)C2C#N (configuration not stated)
113

State the recorded growth for this entry: O=S(OO)c1cc(Cl)c(O)c(Cl)c1 (configuration not stated)
110

State the recorded growth for this entry: CC(=O)Nc1nc2c(s1)C1=CC[C@H]3[C@@H]4CC[C@H](OC(C)=O)[C@@]4(C)CC[C@@H]3[C@@]1(C)CC2
50.3

* * *

Tested on: RXF 393 renal
Assay protocol: NCI-60 one-dose screen, 48 h
Experimental context: 10 µM unless noted
Procedure: Cells are grown in 96 well plates and exposed to the test compound for 48 hours. Compounds are tested at a single concentration, which is 10^-5 M for most compounds. The reported endpoint is percent growth (GI% or GIPRCNT), where numbers from 0 - 100% represent growth inhibition, and numbers from -100% - 0 represent cell death. For example, a value of 40 represents 60% growth inhibition. A value of 0 means no net growth occurred over the course of the experiment. […]
About 83,000 compounds went through this panel and 20% of them were active in at least one assay; those are over-represented in the sample as a whole. Calls of active or inactive are those of the source. How the source made its calls: active means growth percent below 10; inactive means the rest.
Mark one answer only. Choices: 1 (yes) for active, 0 (no) for inactive

As a guide, the following entries are already answered.
Molecule	Study system	Group label
Cc1cc[c-]cc1.Fc1c[c-]c(-c2ccccn2)c(F)c1.[Pt+2].c1ccc([PH+](c2ccccc2)c2ccccn2)cc1	RXF 393 renal	0 (no)
CC1(C)N=C(N)N=C(N)N1c1ccc(CCC(=O)Nc2ccc(S(=O)(=O)F)cc2)cc1	RXF 393 renal	0 (no)
CCCC[C@H]1C(=O)O[C@H](C)[C@H](NC(=O)c2cccc(NC=O)c2O)C(=O)O[C@@H](C)[C@@H]1OC(=O)CC(C)C	RXF 393 renal	1 (yes)
CCCCOCCOP(=O)(OCCOCCCC)OCCOCCCC	RXF 393 renal	0 (no)
CC/C(=C(\c1ccc(OCCN2CCOCC2)cc1)c1ccc(OC(=O)Cc2ccccc2)cc1)c1ccc(Cl)cc1	RXF 393 renal	0 (no)

Test call, this molecule: Cc1c(C)c(N)c(C)c(C)c1N
0 (no)

Test call, this molecule: CC1(C)S[C@H]2CC[C@H]3OC(=O)[C@@H]1N23
0 (no)

* * *

Tested on: HS 578T breast
Assay protocol: NCI-60 one-dose screen, 48 h
Experimental context: 10 µM unless noted
The panel holds about 83,000 compounds, 20% with a hit somewhere; the sample as a whole holds those more often. Calls of active or inactive are those of the source. The calls were made as follows: active = growth percent below 10; inactive = the rest.
Mark one answer only. Choices: TRUE (active), FALSE (inactive)

Test call, this compound: CCCCOCCOP(=O)(OCCOCCCC)OCCOCCCC
FALSE

Test call, this compound: COC12CC3C4=CCOC5CC(=O)N6c7ccccc7C1(CCN2C4)C6C53 (stereo unspecified)
FALSE

Test call, this compound: O=P(O)(Nc1ccccc1)Nc1ccccc1
FALSE

Test call, this compound: CC[C@H](C)[C@H](NC(=O)c1cnccn1)C(=O)N(C)[C@H](C[C@@H](OC(C)=O)c1nc(C(=O)N[C@@H](Cc2ccccc2)C[C@H](C)C(=O)OC)cs1)C(C)C
FALSE

Test call, this compound: COc1cc(/C=C\[N+](=O)[O-])ccc1OCc1ccccc1
FALSE

Test call, this compound: CC[C@H](C)[C@H](NC(=O)[C@H]1CCCCN1C)C(=O)N(C)[C@H](C(=O)NC12CC(C(=O)N[C@@H](Cc3ccccc3)C[C@H](C)C(=O)OC)(C1)C2)C(C)C
FALSE

Test call, this compound: Cc1c(C)c(N)c(C)c(C)c1N
FALSE

Test call, this compound: CNC(=O)Oc1ccc(Cl)cc1SSc1cc(Cl)ccc1OC(=O)NC
FALSE

* * *

Tested on: CCRF-CEM leukemia
Assay protocol: NCI-60 one-dose screen, 48 h (100 = growth as untreated, 0 = no growth, -100 = all killed)
Experimental context: 10 µM unless noted
This is part of a sample that, as a whole, favours compounds with a hit. Of some 83,000 tested, about 20% had one in any assay.
Quantity name: growth (%)
Report the value in % with no unit label.

Compound	growth / %
Cc1cc[c-]cc1.Fc1c[c-]c(-c2ccccn2)c(F)c1.[Pt+2].c1ccc([PH+](c2ccccc2)c2ccccn2)cc1	19.9

State the recorded growth for this entry: CC[C@H](CC[C@@H](C)[C@H]1CC[C@H]2[C@@H]3CC[C@H]4C[C@]5(CC[C@]4(C)[C@H]3CC[C@]12C)OO[C@](C)(C(F)(F)F)O5)C(C)C
100

State the recorded growth for this entry: COC12CC3C4=CCOC5CC(=O)N6c7ccccc7C1(CCN2C4)C6C53 (configuration not stated)
99.7

State the recorded growth for this entry: CC[C@H](C)[C@H](NC(=O)[C@H]1CCCCN1C)C(=O)N(C)[C@H](CCc1nc(C(=O)N[C@@H](Cc2ccccc2)C[C@H](C)C(=O)O)cs1)C(C)C
14.9

State the recorded growth for this entry: S=P(SP(=S)(c1ccccc1)c1ccccc1)(c1ccccc1)c1ccccc1
-61.3

State the recorded growth for this entry: CCCn1cc2c3c(cccc31)[C@H]1C[C@@H](C)CN(C)[C@@H]1C2
86.9

State the recorded growth for this entry: N#CC(N)c1ccccc1 (configuration not stated)
107

State the recorded growth for this entry: CC[C@@H](C)C(=O)O[C@H]1[C@H](O)[C@H]2[C@@H](CN3C[C@@H](C)CC[C@H]3[C@@]2(C)O)[C@@H]2C[C@]34O[C@]5(O)[C@@H](OC(=O)[C@@](C)(O)CC)CC[C@@]3(C)[C@@H]5[C@@H](OC(C)=O)[C@@H](OC(C)=O)[C@H]4[C@@]21O
99.9
